Hey, just so you know, these numbers are from patent US7312225B2.

targetOrSystem: CDK1/CycB (Homo sapiens, UniProt P06493)
Construct: GST
Sequence (P06493 whole entry): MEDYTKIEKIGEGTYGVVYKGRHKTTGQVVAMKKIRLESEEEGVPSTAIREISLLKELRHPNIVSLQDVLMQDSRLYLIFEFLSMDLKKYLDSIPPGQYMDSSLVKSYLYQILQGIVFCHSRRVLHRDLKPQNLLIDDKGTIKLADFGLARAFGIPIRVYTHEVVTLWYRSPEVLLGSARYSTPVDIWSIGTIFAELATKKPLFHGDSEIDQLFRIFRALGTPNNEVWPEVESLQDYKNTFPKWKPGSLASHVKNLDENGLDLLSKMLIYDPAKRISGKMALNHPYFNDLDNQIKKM
Sequence (P14635 whole entry partner): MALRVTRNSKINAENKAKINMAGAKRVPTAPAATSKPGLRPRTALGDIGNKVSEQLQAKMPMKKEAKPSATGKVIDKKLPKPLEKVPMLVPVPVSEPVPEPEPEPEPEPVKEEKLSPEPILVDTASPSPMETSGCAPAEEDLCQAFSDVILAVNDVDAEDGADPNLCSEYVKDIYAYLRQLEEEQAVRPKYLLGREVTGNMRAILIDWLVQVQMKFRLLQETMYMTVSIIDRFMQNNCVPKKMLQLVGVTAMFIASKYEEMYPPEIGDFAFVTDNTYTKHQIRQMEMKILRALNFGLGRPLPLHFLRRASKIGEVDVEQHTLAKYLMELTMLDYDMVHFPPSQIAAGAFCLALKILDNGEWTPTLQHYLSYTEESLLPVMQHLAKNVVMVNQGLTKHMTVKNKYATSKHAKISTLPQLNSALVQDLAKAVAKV
runDescription: CDK1/CycB kinase assay
studyConditions: Table I
Where a name gives a salt, the structure may show the parent alone.
reportedEndpoint: IC50 (nM)

{"columns": ["molecule", "unitOfMeasure", "recordedMeasurement"],
 "data": [
  ["NS(=O)(=O)c1ccc2cc1OCCCCCNc1nc(ncc1Br)N2", "nM", 200],
  ["O=S1(=O)NCCC(CO)Nc2nc(ncc2Br)Nc2cccc1c2 (racemic) [Example 1.3, Hydrochloride]", "nM", 28],
  ["O=S1(=O)NCC(O)CNc2nc(ncc2Br)Nc2cccc1c2 (racemic)", "nM", 40],
  ["O=S1(=O)NCCCC[C@@H](CO)Nc2nc(ncc2Br)Nc2cccc1c2", "nM", 1700],
  ["O=S1(=O)N[C@H]2CC[C@@H](CC2)Nc2nc(ncc2Br)Nc2cccc1c2", "nM", 1500],
  ["O=S1(=O)NCCC(O)CNc2nc(ncc2Br)Nc2cccc1c2 (stereo not shown)", "nM", 200],
  ["O=S1(=O)NCCCOc2nc(ncc2Br)Nc2cccc1c2", "nM", 50]
]}
